Target: Spindlin1 (SPIN1_49-262) (Homo sapiens)
Construct: SPIN1_49-262 was expressed and purified as described previously; His tag; made in house; host or cells: E. coli BL21
Sequence (Q9Y657 49-262): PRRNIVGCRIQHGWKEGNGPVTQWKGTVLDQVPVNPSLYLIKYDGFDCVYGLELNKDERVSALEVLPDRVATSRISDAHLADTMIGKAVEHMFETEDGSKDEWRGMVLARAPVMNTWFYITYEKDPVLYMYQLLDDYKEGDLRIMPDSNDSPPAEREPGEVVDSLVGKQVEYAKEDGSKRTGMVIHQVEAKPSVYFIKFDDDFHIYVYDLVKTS
Assay: Isothermal titration calorimetry of 15-mer H3K4me3X8 peptides binding to Spindlin1
Details: ITC, 25.0 °C, 20 mM Tris, 100 mM NaCl pH 8.0; mean ± SD of 3 repeated ITC experiments; SD
Procedure: Spindlin1 was dialysed against ITC buffer containing 100 mM NaCl and 20 mM Tris HCl buffer (pH 8.0). SPIN1_49-262 was expressed and purified as described previously. Briefly, His-tagged SPIN1 was expressed in E.coli strain BL21 at 37 °C until OD600 = 2.0. Protein expression was induced by the addition of 0.1 mM IPTG, followed by incubation at 18 °C overnight. […]
Starred links: 1 amine or outer side, 2 acyl side, 3 side chain; linkers in the order of their positions; H or OH if unused. Non-standard residues stand in square brackets, D forms with d. Residues, ends and D or L forms follow the SMILES beside them. Groups on a side chain read outwards from the residue. X3 = N=C(NCCC[C@H](N[*:1])C(=O)[*:2])N1CCCCC1; X2 = CCN(CC)C(=N)NCCC[C@H](N[*:1])C(=O)[*:2]; X4 = N=C(NCCC[C@H](N[*:1])C(=O)[*:2])N1CCCC1; X5 = CN(C)C(=N)NCCCC[C@H](N[*:1])C(=O)[*:2]; X6 = CCN(C)C(=N)NCCC[C@H](N[*:1])C(=O)[*:2]; X1 = CN(C)C(=N)NCC[C@H](N[*:1])C(=O)[*:2]; Lys(Me3) = C[N+](C)(C)CCCC[C@H](N)C(=O)O; Orn = NCCC[C@H](N)C(=O)O; CO = O=C([*:1])[*:2]
Please assign F whenever ΔH° is at or above -20 kcal/mol, and T whenever it is below.

Some solved cases for reference:
Input: Is ΔH° of "C[C@H](N)C(=O)N[C@@H](CCCNC(=N)N)C(=O)N[C@H](C(=O)N[C@@H](CCCC[N+](C)(C)C)C(=O)N[C@@H](CCC(N)=O)C(=O)N[C@H](C(=O)N[C@@H](C)C(=O)N[C@@H](CCCNC(=N)N(C)C)C(=O)N[C@@H](CCCCN)C(=O)N[C@@H](CO)C(=O)N[C@H](C(=O)NCC(=O)NCC(=O)N[C@@H](CCCCN)C(=O)N[C@@H](C)C(N)=O)[C@@H](C)O)[C@@H](C)O)[C@@H](C)O" strictly below -20 kcal/mol?
Output: F

Input: Identify whether the compound CCN(C)C(=N)NCCC[C@H](NC(=O)[C@H](C)NC(=O)[C@@H](NC(=O)[C@H](CCC(N)=O)NC(=O)[C@H](CCCC[N+](C)(C)C)NC(=O)[C@@H](NC(=O)[C@H](CCCNC(=N)N)NC(=O)[C@H](C)N)[C@@H](C)O)[C@@H](C)O)C(=O)N[C@@H](CCCCN)C(=O)N[C@@H](CO)C(=O)N[C@H](C(=O)NCC(=O)NCC(=O)N[C@@H](CCCCN)C(=O)N[C@@H](C)C(N)=O)[C@@H](C)O [H3K4me3R8etme] (H-ART[Lys(Me3)]QTA[X6]KSTGGKA-NH2) records ΔH° below -20 kcal/mol.
Output: T

Input: Regarding C[C@H](N)C(=O)N[C@@H](CCCNC(=N)N)C(=O)N[C@H](C(=O)N[C@@H](CCCC[N+](C)(C)C)C(=O)N[C@@H](CCC(N)=O)C(=O)N[C@H](C(=O)N[C@@H](C)C(=O)N[C@@H](CCCCNC(=N)N(C)C)C(=O)N[C@@H](CCCCN)C(=O)N[C@@H](CO)C(=O)N[C@H](C(=O)NCC(=O)NCC(=O)N[C@@H](CCCCN)C(=O)N[C@@H](C)C(N)=O)[C@@H](C)O)[C@@H](C)O)[C@@H](C)O [H3K4me3hR8me2a] (H-ART[Lys(Me3)]QTA[X5]KSTGGKA-NH2) , kindly confirm whether its ΔH° is beneath -20 kcal/mol.
Output: T

Input: Bench note: check whether CCN(CC)C(=N)NCCC[C@H](NC(=O)[C@H](C)NC(=O)[C@@H](NC(=O)[C@H](CCC(N)=O)NC(=O)[C@H](CCCC[N+](C)(C)C)NC(=O)[C@@H](NC(=O)[C@H](CCCNC(=N)N)NC(=O)[C@H](C)N)[C@@H](C)O)[C@@H](C)O)C(=O)N[C@@H](CCCCN)C(=O)N[C@@H](CO)C(=O)N[C@H](C(=O)NCC(=O)NCC(=O)N[C@@H](CCCCN)C(=O)N[C@@H](C)C(N)=O)[C@@H](C)O [H3K4me3R8et2a] (H-ART[Lys(Me3)]QTA[X2]KSTGGKA-NH2) shows ΔH° below -20 kcal/mol
Output: F

Input: Just wondering, is ΔH° of C[C@H](N)C(=O)N[C@@H](CCCNC(=N)N)C(=O)N[C@H](C(=O)N[C@@H](CCCC[N+](C)(C)C)C(=O)N[C@@H](CCC(N)=O)C(=O)N[C@H](C(=O)N[C@@H](C)C(=O)N[C@@H](CCNC(=N)N(C)C)C(=O)N[C@@H](CCCCN)C(=O)N[C@@H](CO)C(=O)N[C@H](C(=O)NCC(=O)NCC(=O)N[C@@H](CCCCN)C(=O)N[C@@H](C)C(N)=O)[C@@H](C)O)[C@@H](C)O)[C@@H](C)O [H3K4me3nR8me2a] (H-ART[Lys(Me3)]QTA[X1]KSTGGKA-NH2) below -20 kcal/mol?
Output: F

New cases:
Input: Regarding C[C@H](N)C(=O)N[C@@H](CCCNC(=N)N)C(=O)N[C@H](C(=O)N[C@@H](CCCC[N+](C)(C)C)C(=O)N[C@@H](CCC(N)=O)C(=O)N[C@H](C(=O)N[C@@H](C)C(=O)N[C@@H](CCCNC(=N)N1CCCCC1)C(=O)N[C@@H](CCCCN)C(=O)N[C@@H](CO)C(=O)N[C@H](C(=O)NCC(=O)NCC(=O)N[C@@H](CCCCN)C(=O)N[C@@H](C)C(N)=O)[C@@H](C)O)[C@@H](C)O)[C@@H](C)O [H3K4me3R8pip] (H-ART[Lys(Me3)]QTA[X3]KSTGGKA-NH2) , kindly confirm whether its ΔH° is beneath -20 kcal/mol.
Output: T

Input: # strict comparison: is reported ΔH° < -20 kcal/mol? input = C[C@H](N)C(=O)N[C@@H](CCCNC(=N)N)C(=O)N[C@H](C(=O)N[C@@H](CCCC[N+](C)(C)C)C(=O)N[C@@H](CCC(N)=O)C(=O)N[C@H](C(=O)N[C@@H](C)C(=O)N[C@@H](CCCNC(=N)N1CCCC1)C(=O)N[C@@H](CCCCN)C(=O)N[C@@H](CO)C(=O)N[C@H](C(=O)NCC(=O)NCC(=O)N[C@@H](CCCCN)C(=O)N[C@@H](C)C(N)=O)[C@@H](C)O)[C@@H](C)O)[C@@H](C)O [H3K4me3R8pyr] (H-ART[Lys(Me3)]QTA[X4]KSTGGKA-NH2)
Output: T

Input: Criterion: ΔH° strictly below -20 kcal/mol. Is it met by C[C@H](N)C(=O)N[C@@H](CCCNC(=N)N)C(=O)N[C@H](C(=O)N[C@@H](CCCC[N+](C)(C)C)C(=O)N[C@@H](CCC(N)=O)C(=O)N[C@H](C(=O)N[C@@H](C)C(=O)N[C@@H](CCCNC(=O)N(C)C)C(=O)N[C@@H](CCCCN)C(=O)N[C@@H](CO)C(=O)N[C@H](C(=O)NCC(=O)NCC(=O)N[C@@H](CCCCN)C(=O)N[C@@H](C)C(N)=O)[C@@H](C)O)[C@@H](C)O)[C@@H](C)O [H3K4me3Cit8me2] (H-ART[Lys(Me3)]QTA[Orn]([CO-NMe2])KSTGGKA-NH2) ?
Output: F
